Just for reference, patent US10703746B2 is where these values come from.

Each item that follows carries a reported IC50.
- testTarget: IDH1 R132H (Homo sapiens, UniProt O75874, R132H)
- Sequence (O75874 whole entry R132H): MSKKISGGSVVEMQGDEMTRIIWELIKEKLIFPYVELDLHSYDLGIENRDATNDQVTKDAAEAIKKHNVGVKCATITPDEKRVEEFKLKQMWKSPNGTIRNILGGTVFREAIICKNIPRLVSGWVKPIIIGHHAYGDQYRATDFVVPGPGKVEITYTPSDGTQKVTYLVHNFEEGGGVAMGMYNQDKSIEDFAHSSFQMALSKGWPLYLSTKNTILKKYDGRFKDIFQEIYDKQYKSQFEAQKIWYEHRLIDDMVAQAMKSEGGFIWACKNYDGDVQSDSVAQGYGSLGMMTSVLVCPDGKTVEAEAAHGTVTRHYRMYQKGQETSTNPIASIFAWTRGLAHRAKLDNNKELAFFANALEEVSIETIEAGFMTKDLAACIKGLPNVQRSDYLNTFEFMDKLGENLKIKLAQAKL
- assayMethodText: IDH1 R132H enzymatic assay (NADPH depletion coupled to diaphorase/resazurin)
- Type: biochemical
- statedConditions: IDH1 R132H enzymatic inhibition, IC50 class
experimentalReadout: IC50

molecule: Cc1cc(CO)ccc1-n1c2c(cc(-c3nc(-c4ccc(Cl)cc4)cs3)c1=O)C(=O)CCC2
testTarget: IDH1 R132H (Homo sapiens, UniProt O75874, R132H)
result: 5 to 20 µM
--
molecule: CC1(C)CC(=O)c2cc(-c3nc(-c4ccc(Cl)cc4)cs3)c(=O)n(-c3ccccc3-c3ccccc3)c2C1
testTarget: IDH1 R132H (Homo sapiens, UniProt O75874, R132H)
result: 1 to 5 µM
--
molecule: COc1ccc([N+](=O)[O-])cc1-n1c2c(cc(-c3nc(-c4ccc(Cl)cc4)cs3)c1=O)C(=O)CC(C)(C)C2
testTarget: IDH1 R132H (Homo sapiens, UniProt O75874, R132H)
result: 1 to 5 µM
--
molecule: COc1ncc(C2=CCNCC2)cc1-n1c2c(cc(-c3nc(-c4ccc(Cl)cc4)cs3)c1=O)C(=O)CC(C)(C)C2
testTarget: IDH1 R132H (Homo sapiens, UniProt O75874, R132H)
result: 5 to 20 µM
--
molecule: CCc1cccc(CC)c1-n1c(CC2CCNCC2)c(C(=O)NC)cc(-c2nc(-c3ccc(Cl)cc3)cs2)c1=O
testTarget: IDH1 R132H (Homo sapiens, UniProt O75874, R132H)
result: 5 to 20 µM
--
molecule: O=C1CCCc2c1cc(-c1nc(-c3ccc(Cl)cc3)cs1)c(=O)n2-c1ccccn1
testTarget: IDH1 R132H (Homo sapiens, UniProt O75874, R132H)
result: > 20 µM
--
molecule: CCc1cccc(CC)c1-n1c(-c2ccccc2)c(C#N)cc(-c2nc(-c3ccc(Cl)cc3)cs2)c1=O
testTarget: IDH1 R132H (Homo sapiens, UniProt O75874, R132H)
result: 5 to 20 µM
--
molecule: CCc1cccc(CC)c1-n1c(CC(C)C)c(C(=O)N2CCNCC2)cc(-c2nc(-c3ccc(F)cc3)c(C)s2)c1=O
testTarget: IDH1 R132H (Homo sapiens, UniProt O75874, R132H)
result: < 0.3 µM
--
molecule: CCc1cccc(CC)c1-n1c(CC(C)C)c(C(=O)N2CCNCC2)cc(-c2nc(-c3ccc(CN4CCOCC4)cc3)c(C)s2)c1=O
testTarget: IDH1 R132H (Homo sapiens, UniProt O75874, R132H)
result: 5 to 20 µM
--
molecule: CCc1cccc(CC)c1-n1c(CC(C)C)c(C(=O)N2CCNCC2)cc(-c2nc(-c3ccc(OC(C)C)cc3)c(C)s2)c1=O
testTarget: IDH1 R132H (Homo sapiens, UniProt O75874, R132H)
result: 0.3 to 1 µM
--
molecule: CCc1cccc(CC)c1-n1c(CC(C)C)c(C(=O)N2CCNC(C(F)(F)F)C2)cc(-c2nc(-c3ccc(Cl)cc3)cs2)c1=O (centres unmarked)
testTarget: IDH1 R132H (Homo sapiens, UniProt O75874, R132H)
result: 0.3 to 1 µM
--
molecule: CCc1cccc(CC)c1-n1c(CC(C)C)c(C(=O)N2CCNC(C)(C)C2)cc(-c2nc(-c3ccc(Cl)cc3)cs2)c1=O
testTarget: IDH1 R132H (Homo sapiens, UniProt O75874, R132H)
result: 0.3 to 1 µM
--
molecule: CCc1cccc(CC)c1-n1c(C(C)C)c(C(=O)N2CCNC(C(=O)OC)C2)cc(-c2nc(-c3ccc(Cl)cc3)cs2)c1=O (centres unmarked)
testTarget: IDH1 R132H (Homo sapiens, UniProt O75874, R132H)
result: 1 to 5 µM
--
molecule: CCOc1ccc(Cl)c(-n2c(C=C(C)C)c(C(=O)N3CCNCC3)cc(-c3nc(-c4ccc(Cl)cc4)cs3)c2=O)c1
testTarget: IDH1 R132H (Homo sapiens, UniProt O75874, R132H)
result: < 0.3 µM
